Catalogue of compounds with associated emission maximum
test: solvent given as SMILES; conditions: in CCOCC

compound	emission maximum
Oc1ccccc1/C=N/c1ccc(Cn2cncn2)cc1	346 nm
CN(C)c1ccc(C=C/C=C/C=C/c2ccc(C#N)cc2)cc1	567 nm
CCCCC(CC)Cn1c2cc(C#N)c(-c3ccc(N(c4ccccc4)c4ccccc4)cc3)cc2c2cc(-c3ccc(N(c4ccccc4)c4ccccc4)cc3)c(C#N)cc21 (stereo not drawn)	472 nm

====

test: solvent given as SMILES; conditions: in CCOC(C)=O
Cut-off 500 nm on emission maximum, inclusive. At or above means 1; below means 0.

>>> print(df.to_string())
                    structure_smiles_string  assigned_label
0  Cc1ccccc1C1=C2C=c3c(oc4c3ccc3ccccc34)=[N+]2[B-](F)(F)n2c1cc1c3ccc4ccccc4c3oc12               1
1              CCN(CC)c1ccc2c(C)cc(=O)oc2c1               0
2  COC1=[N+]2C(=C(c3ccccc3)c3cc(SC#N)c(OC)n3[B-]2(F)F)C=C1SC#N               1
3  Cc1cc2ccc(-c3cccc4cccc(-c5ccc6cc(C)c(=O)oc6c5)c34)cc2oc1=O               0
4    CCN(CC)c1ccc2nc3c4ccccc4c(=O)cc-3oc2c1               1
5  Cc1ccccc1C1=C2C=c3c(oc4ccccc34)=[N+]2[B-](F)(F)n2c1cc1c3ccccc3oc12               1
6             CN(C)c1ccc2cc3c(cc2c1)OCCN=C3               0
7  COc1ccc(/C=C/C2=[O+][B-](F)(F)OC(/C=C/c3ccc(OC)c4ccccc34)=C2c2ccccc2)c2ccccc12               1

====

Catalogue of molecules with associated emission maximum
experiment: solvent given as SMILES; settings: in CCOC(C)=O
value_kind: emission maximum (nm)

>>> print(df.to_string())
                                   molecule  assay_value
0  COC(=O)C(Cc1ccc2oc(-c3ccc(Nc4ccccc4)cc3)nc2c1)NC(=O)OC(C)(C)C (stereo not drawn)          412
1    Cc1ccc(C#Cc2ccc3ccc4cccc5ccc2c3c45)cc1          391
2  CCn1c2ccccc2c2cc(-c3cc(-c4ccc5c(c4)c4ccccc4n5CC)nc(-c4ccccc4)n3)ccc21          389

====

assay: solvent given as SMILES; details: in C1COCCO1
Catalogue of molecules with associated emission maximum
value_kind: emission maximum (nm)

>>> print(df.to_string())
                    structure_smiles_string  unit_info  assay_value
0      O=C1Nc2ccccc2/C1=C/C(=O)c1ccc(Cl)cc1         nm          394
1  Cc1cc2ccc(-c3cccc4cccc(-c5ccc6cc(C)c(=O)oc6c5)c34)cc2oc1=O         nm          399
2                   Nc1ccc(-c2ccc(N)cc2)cc1         nm          392
3         Oc1cccc(/N=C/c2ccccc2Oc2ccccc2)c1         nm          406

====

test: solvent given as SMILES; details: in Cc1ccccc1
Catalogue of compounds with associated emission maximum
value_kind: emission maximum (nm)

compound	value_kind	assay_value
CCN(CC)c1ccc(-c2ccc(-c3nc(C#N)c4ccccc4n3)s2)cc1	emission maximum	471
Cc1cccc2c3ccccc3n(-c3ccc(-c4c(-c5ccccc5)c(C#N)c(C#N)c(-c5ccccc5)c4-c4ccc(-n5c6ccccc6c6cccc(C)c65)cc4)cc3)c12	emission maximum	440
CCN(CC)c1ccc([N+]2=Cc3ccc4c5c(ccc4c3O[B-]2(c2ccccc2)c2ccccc2)C=[N+](c2ccc(N(CC)CC)cc2)[B-](c2ccccc2)(c2ccccc2)O5)cc1	emission maximum	627
CC1(C)OB(c2cc3ccc4cccc5ccc(c2)c3c45)OC1(C)C	emission maximum	386
COc1ccc(/C=C/c2nc(/C=C/c3ccc(N(C)C)cc3)cc(/C=C/c3ccc(N(C)C)cc3)n2)cc1	emission maximum	480
CCc1c(C)c2n(c1C)[B-](F)(F)[N+]1=C(c3ccc[nH]3)c3ccccc3C1=C2	emission maximum	635
COc1ccc(-c2n[n+]3c(s2)N=C(c2ccccc2)O[B-]3(F)F)cc1	emission maximum	436
O=S(=O)(c1ccc(N2c3ccccc3N(c3ccccc3)c3ccccc32)cc1)c1ccc(N2c3ccccc3N(c3ccccc3)c3ccccc32)cc1	emission maximum	577
CC(C)(C)c1ccc2c(c1)sc1[n+]2[B-](F)(F)n2c(c3cccc4c(Br)ccc2c43)=C1C#N	emission maximum	563
CCN(CC)c1ccc2cc(-c3cc(SC)c(C#N)c(=O)o3)c(=O)oc2c1	emission maximum	533
CCCCC1(CCCC)c2cc(/C=C/c3ccc(N(c4ccccc4)c4ccccc4)cc3)ccc2-c2cc3c(cc21)-c1ccc(/C=C/c2ccc(N(c4ccccc4)c4ccccc4)cc2)cc1C3(CCCC)CCCC	emission maximum	450
CN(C)c1ccc2cc3c(cc2c1)OCCN=C3	emission maximum	415
CCCCOC(=O)c1cc(Oc2ccc(OC)cc2)c2c3c(Cl)cc4c5c(cc(Cl)c(c6c(Oc7ccc(OC)cc7)cc(C(=O)OCCCC)c1c26)c53)C(=O)N(c1c(C(C)C)cccc1C(C)C)C4=O	emission maximum	599
C[Si]1(C)C2=C(c3ccc(N(c4ccccc4)c4ccccc4)cc31)P(=O)(c1ccccc1)c1ccccc12 (stereo not given)	emission maximum	544
CCC1=C(C)C2=Cc3c4ccccc4c4n3[B-](c3ccc(OC)cc3)(Oc3ccccc3-4)[N+]2=C1C (stereo not given)	emission maximum	641
CC(C)(C(=O)c1ccc(N2c3ccccc3Oc3ccccc32)cc1)C(=O)c1ccc(N2c3ccccc3Oc3ccccc32)cc1	emission maximum	562
N#Cc1c(-n2c3ccccc3c3ccccc32)c(-n2c3ccccc3c3ccccc32)c(C#N)c(-n2c3ccccc3c3ccccc32)c1-n1c2ccccc2c2ccccc21	emission maximum	535
c1ccc(-c2nc(-c3ccccc3)nc(-c3ccc(-n4c5ccccc5c5cc(-c6ccc7oc8ccccc8c7c6)ccc54)cc3)n2)cc1	emission maximum	433
CCCCCCOc1ccc(C#Cc2ccc(C#Cc3ccc(OCCCCCC)c(OCCCCCC)c3)c3nsnc23)cc1OCCCCCC	emission maximum	537
CCC1=C(C)C2=C(C)c3c(C)c(CC)c(C)n3[B-](F)(F)[N+]2=C1C	emission maximum	536.4

====

experiment: solvent given as SMILES; conditions: in CO
value_kind: emission maximum (nm)

In [3]: df
Out[3]:
                                   compound  assay_value
0          CCOC(=O)c1sc(SC)c2c(=O)[nH]nnc12          499
1           N#C[Se]CCCCCOc1ccc2ccc(=O)oc2c1          391
2  CCN(C)c1ccc(C2=C3C(C)=CC(/C=C/c4ccc(OCCCN=[N+]=[N-])cc4)=[N+]3[B-](F)(F)n3c(C)cc(C)c32)cc1          586
3  COC(=O)C(Cc1ccc2oc(-c3ccc(Nc4ccccc4)cc3)nc2c1)NC(=O)OC(C)(C)C (stereo unspecified)          457
4  CCOC(=O)/C(C#N)=C\c1ccc2c(c1)c1ccccc1n2-c1ccc(C)cc1          495
5  Cc1ccccc1C1=C2C=c3c(oc4c3ccc3ccccc34)=[N+]2[B-](F)(F)n2c1cc1c3ccc4ccccc4c3oc12          625

====

experiment: solvent given as SMILES; conditions: in ClC(Cl)Cl
Ranges used to classify emission maximum: low-valued: < 500 nm; mid-valued: ≥ 500 nm and < 600 nm; high-valued: ≥ 600 nm

molecule	assigned_label
Clc1ccc(-c2nc(-c3ccccc3)sc2N(c2ccccc2)c2ccccc2)cc1	low-valued
O=C1CCCC2=C1CC1=C(CCCC1=O)N2NC(=O)c1ccc(O)cc1	low-valued
CCC1=C(C)C2C(c3ccc(-c4ccc(-c5nc6c7ccccc7c7ccccc7c6n5-c5ccc(C(C)(C)C)cc5)cc4)cc3)c3c(C)c(CC)c(C)n3[B-](F)(F)[N+]2=C1C (stereo not given)	mid-valued
N#Cc1c2nc3ccccn3c2nc2c1nc1ccccn12	low-valued
CCn1c2ccccc2oc2c(C#N)c3oc4ccccc4oc3c(C#N)c21	mid-valued
COc1ccc(/C=C/C2=CC(/C=C/c3ccc(OC)cc3)=[O+][B-](OC(C)=O)(OC(C)=O)O2)cc1	mid-valued
COc1ccc(N(c2ccc(OC)cc2)c2ccc(-c3ccc(-c4ccc(-c5cccs5)c5nsnc45)s3)cc2)cc1	high-valued
Cc1cc(=O)c2ccc(N)cc2o1	low-valued
Cc1ccc(C2=C(/C=C/C(=O)OC3CC[C@@]4(C)C(=CC[C@H]5[C@@H]6CC[C@H]([C@H](C)CCCC(C)C)[C@@]6(C)CC[C@@H]54)C3)C(c3ccc(C)cc3)=[N+]3C2=Nc2c(-c4ccc(C)cc4)c(Br)c(-c4ccc(C)cc4)n2[B-]3(F)F)cc1 (stereo not given in full)	high-valued
Cc1ccc(/C2=c3\cc/c(o3)=C(\c3ccc(C)cc3)c3ccc([nH]3)-c3ccc4n3[P-](=O)(=O)[N+]3=C(C=CC3=C4c3ccc[nH]3)c3ccc2[nH]3)cc1	high-valued
CN1C(=CC2=C([O-])C(=CC3=[N+](C)c4ccccc4C3(C)C)C2=C2C(=O)c3ccccc3C2=O)C(C)(C)c2ccccc21	high-valued
CCCCCCCCCCCCSc1cc2c3c(ccc4c5c(SCCCCCCCCCCCC)cc6c7c(ccc(c1c34)c75)C(=O)N(C1CCCCC1)C6=O)C(=O)N(C1CCCCC1)C2=O	high-valued
Cc1ccc(-n2c3ccccc3c3cc(C=C(C#N)C#N)ccc32)cc1	low-valued
C[Si](C)(C)c1sc([Si](C)(C)C)c2c1sc1c3sc4c(sc5c4sc4c([Si](C)(C)C)sc([Si](C)(C)C)c45)c3sc12	low-valued
COC(=O)C(Cc1ccc2oc(-c3ccc(Nc4ccccc4)cc3)nc2c1)NC(=O)OC(C)(C)C (stereo not given)	low-valued
CCN(CC)c1ccc2cc(-c3cc(SC)c(C#N)c(=O)o3)c(=O)oc2c1	mid-valued
COc1ccc(C2=c3sc(-c4ccc(OC)cc4)cc3=[N+]3C2=Nc2c(-c4ccc(OC)cc4)c4sc(-c5ccc(OC)cc5)cc4n2[B-]3(F)F)cc1	high-valued
